These data points were gathered from PubChem BioAssay.

z-score overview
Experiment: S. cerevisiae RM11-1a growth modifiers, primary screen, strain RM11-1a, OD600, basal, 24 h (AID 1177);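 further: cultures grown under basal conditions with no added stressor; test concentration not given here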
Conditions: OD600, 24 h, higher = more signal, called active from +8 up or from −8 down
I'd appreciate a reply containing only the number, no unit.

Please review the following examples before continuing.
Sure, the documented z-score for CN1C2C=C(c3ccc(CO)cc3)C(C3C(=O)N(C(N)=O)C(=O)C32)C1C1CC1 (stereo not drawn) is 0.718

Sure, the documented z-score for Cc1ccc(S(=O)(=O)N2[C@@H](c3ccccc3)C(C(=O)O)=C[C@H]2C(C)(C)C)cc1 is -1.13

Sure, the documented z-score for COC(=O)[C@@]1(Cc2ccccc2)[C@H]2c3cc(C(=O)N(C)C)n(Cc4nc5ccccc5[nH]4)c3C[C@H]2CN1C(=O)c1ccccc1 is -0.706

Sure, the documented z-score for COCCOC(=O)N1C(=O)[C@@]2(c3cc(C#CCNC(N)=O)ccc31)[C@H](c1ccccc1OCCO)N1[C@H](c3ccccc3)[C@H](c3ccccc3)OC(=O)[C@H]1[C@@H]2C(=O)N1CCCCCCC1 is 1.09

Sure, the documented z-score for C=C(CC1([C@@H](NP(=O)(c2ccccc2)c2ccccc2)[C@H]2C[C@@H]2CCCC)CC1)c1cccc(OC)c1 is 1.61

Others:
Sure, the documented z-score for CCCC1(C(=O)OC)C=C2C(=C(C(C)C)C(=O)C2C)CN1 (stereo not drawn) is 0.391

Sure, the documented z-score for C=C(COC)C(=O)CC[C@H](OC(C)=O)c1ccc(CO)o1 is -1.28

Sure, the documented z-score for CN(C)C(=O)[C@]1(CCS(=O)(=O)c2ccccc2)N=C(c2ccc(OCCCO)cc2)O[C@@H]1c1ccccc1CN=[N+]=[N-] is 0.3
